- Protocol: Clinical pharmacokinetics in patients with GIST (noncompartmental)
- Type: in vivo, human
- Cond: human, plasma; 30 mg QOD oral, fed; steady state (Cycle 1 Day 27); mean (SD); read-out: T1/2 (converted)

# Smi, half-life, h
data = [
    ("Cc1ccc(C(=O)Nc2ccc(CN3CCN(C)CC3)c(C(F)(F)F)c2)cc1C#Cc1cnc2[nH]ncc2c1", 27),
]

* * *

- Study system: UniProt P21802
- Sequence (P21802 22-821): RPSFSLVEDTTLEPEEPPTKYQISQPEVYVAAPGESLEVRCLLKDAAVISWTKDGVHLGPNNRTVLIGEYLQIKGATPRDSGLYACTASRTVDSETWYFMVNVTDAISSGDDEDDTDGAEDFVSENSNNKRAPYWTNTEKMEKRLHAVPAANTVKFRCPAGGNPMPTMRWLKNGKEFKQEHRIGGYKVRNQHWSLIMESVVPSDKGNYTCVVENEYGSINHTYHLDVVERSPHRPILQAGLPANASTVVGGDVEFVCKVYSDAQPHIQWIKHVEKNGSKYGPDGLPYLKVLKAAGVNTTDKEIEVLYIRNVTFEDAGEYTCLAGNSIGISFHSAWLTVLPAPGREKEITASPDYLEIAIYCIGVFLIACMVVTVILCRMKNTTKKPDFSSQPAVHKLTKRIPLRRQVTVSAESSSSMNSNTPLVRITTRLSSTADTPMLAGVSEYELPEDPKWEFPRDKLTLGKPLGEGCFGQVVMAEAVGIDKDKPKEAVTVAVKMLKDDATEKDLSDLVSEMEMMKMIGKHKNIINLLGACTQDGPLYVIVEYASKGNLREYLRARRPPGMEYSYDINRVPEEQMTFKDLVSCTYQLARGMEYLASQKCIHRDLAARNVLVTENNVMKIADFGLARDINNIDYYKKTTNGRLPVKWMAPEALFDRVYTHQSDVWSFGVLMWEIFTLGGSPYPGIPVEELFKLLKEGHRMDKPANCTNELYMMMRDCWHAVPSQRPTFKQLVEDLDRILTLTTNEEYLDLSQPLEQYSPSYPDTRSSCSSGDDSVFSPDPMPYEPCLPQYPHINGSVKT
pIC50: −log10 of the molar value.

# Smi, pIC50
records = [
    ("Cc1ccc(C(=O)Nc2ccc(CN3CCN(C)CC3)c(C(F)(F)F)c2)cc1C#Cc1cnc2[nH]ncc2c1", "> 9.22"),
]

* * *

- Protocol: Clinical pharmacokinetics in patients with GIST (noncompartmental)
- Assay type: in vivo, human
- Cond: human, plasma; 50 mg QOD oral, fed; steady state (Cycle 1 Day 27); mean (SD); read-out: Vz/F

# Smi, Unit string, Vd/F
rows = [
    ("Cc1ccc(C(=O)Nc2ccc(CN3CCN(C)CC3)c(C(F)(F)F)c2)cc1C#Cc1cnc2[nH]ncc2c1", "L", 2350),
]

* * *

- Study system: FGFR4 (Homo sapiens)
- Sequence (P22455 22-802): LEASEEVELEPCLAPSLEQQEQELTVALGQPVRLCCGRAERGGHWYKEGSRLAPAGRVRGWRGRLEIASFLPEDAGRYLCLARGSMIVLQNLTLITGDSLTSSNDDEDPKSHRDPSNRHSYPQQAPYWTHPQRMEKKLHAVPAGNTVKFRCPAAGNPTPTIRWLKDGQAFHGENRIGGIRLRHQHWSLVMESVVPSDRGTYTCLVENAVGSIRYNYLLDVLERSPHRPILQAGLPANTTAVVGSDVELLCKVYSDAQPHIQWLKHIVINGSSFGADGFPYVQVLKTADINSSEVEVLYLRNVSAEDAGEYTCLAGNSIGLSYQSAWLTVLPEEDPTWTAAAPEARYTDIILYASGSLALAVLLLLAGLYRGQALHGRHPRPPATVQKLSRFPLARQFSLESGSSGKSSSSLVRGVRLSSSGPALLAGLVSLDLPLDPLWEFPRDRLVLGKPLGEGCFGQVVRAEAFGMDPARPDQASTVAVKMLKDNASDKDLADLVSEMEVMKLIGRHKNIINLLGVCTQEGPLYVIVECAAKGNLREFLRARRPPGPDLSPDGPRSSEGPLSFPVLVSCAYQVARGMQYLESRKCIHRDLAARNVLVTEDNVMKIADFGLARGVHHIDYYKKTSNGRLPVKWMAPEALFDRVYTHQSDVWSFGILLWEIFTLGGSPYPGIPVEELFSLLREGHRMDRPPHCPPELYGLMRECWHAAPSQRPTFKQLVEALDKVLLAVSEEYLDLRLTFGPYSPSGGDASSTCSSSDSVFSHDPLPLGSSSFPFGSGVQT

# Smi, IC50
rows = [
    ("Cc1ccc(C(=O)Nc2ccc(CN3CCN(C)CC3)c(C(F)(F)F)c2)cc1C#Cc1cnc2[nH]ncc2c1", "< 0.6 nM"),
]

* * *

- Protocol: Clinical pharmacokinetics in patients with GIST (noncompartmental)
- Format: in vivo, human
- Cond: human, plasma; 40 mg QOD oral, fed; steady state (Cycle 1 Day 27); mean (SD); read-out: Vz/F
Property label: Vd/F (L)

# Compound, Recorded value
rows = [
    ("Cc1ccc(C(=O)Nc2ccc(CN3CCN(C)CC3)c(C(F)(F)F)c2)cc1C#Cc1cnc2[nH]ncc2c1 [Olverembatinib]", 2130),
]

* * *

- Protocol: Clinical pharmacokinetics in patients with GIST (noncompartmental)
- Assay type: in vivo, human
- Cond: human, plasma; 40 mg QOD oral, fed; steady state (Cycle 1 Day 27); mean (SD)

# Smi, Cmax
rows = [
    ("Cc1ccc(C(=O)Nc2ccc(CN3CCN(C)CC3)c(C(F)(F)F)c2)cc1C#Cc1cnc2[nH]ncc2c1", "21.8 ng/mL"),
]

* * *

- Protocol: Clinical pharmacokinetics in patients with GIST (noncompartmental)
- Type: in vivo, human
- Cond: human, plasma; 40 mg QOD oral, fed; steady state (Cycle 1 Day 27); mean (SD); read-out: T1/2 (converted)
Property label: half-life (h)

# Compound, Unit string, Recorded value
data = [
    ("Cc1ccc(C(=O)Nc2ccc(CN3CCN(C)CC3)c(C(F)(F)F)c2)cc1C#Cc1cnc2[nH]ncc2c1 [Olverembatinib]", "h", 18.9),
]

All values here come from paper PMC12583704.
